System: Radical scavenging activity
Assay: Antioxidant activity assessed as DPPH radical scavenging activity at 12 uM after 30 mins
Type: functional
Lab note: cut-off is 10%. Strictly less in Activity is T. Exactly 10% or more is F.

## Task Identify whether the compound C/C(=C/C(=O)C/C(C)=C/Cc1cc(O)cc(C)c1O)CC/C=C(\C)Cc1cc(C)co1 records Activity below 10%.
## Result F

## Task Now try C/C(=C/CC/C(C)=C/CC/C(C)=C/C(=O)C/C(C)=C/Cc1cc(O)cc(C)c1O)CO .
## Result F

## Task Subsequent entry: Cc1c(C)c2c(c(C)c1O)CC[C@@](C)(CCC[C@H](C)CCC[C@H](C)CCCC(C)C)O2
## Result F

## Task Also, C/C(=C/CC/C(C)=C/CC/C(C)=C\C(=O)C/C(C)=C/Cc1cc(O)cc(C)c1O)CO please.
## Result F

## Task Now the same for CC1=CC(=O)C=C(C/C=C(\C)CC(=O)/C=C(/C)CC/C=C(\C)Cc2cc(C)co2)C1=O
## Result T

## Task Cool, now CC1=CC(=O)C=C(C/C=C(\C)CC(=O)/C=C(\C)CC/C=C(\C)Cc2cc(C)co2)C1=O
## Result T

## Task Another compound to check: Cc1cc(C(C)(C)C)c(O)c(C(C)(C)C)c1
## Result T

## Task Same thing, different compound: CC(C)=CCC/C(C)=C/C(=O)C/C(C)=C/Cc1cc(O)cc(C)c1O
## Result T

## Task What do we get for CC(C)=CCC/C(C)=C\C(=O)C/C(C)=C/Cc1cc(O)cc(C)c1O ?
## Result T

## Task Continue with C/C(=C\C(=O)C/C(C)=C/Cc1cc(O)cc(C)c1O)CC/C=C(\C)Cc1cc(C)co1
## Result F

## Task Now consider CC(C)=CC(=O)C/C(C)=C/CC/C(C)=C/C(=O)C/C(C)=C/Cc1cc(O)cc(C)c1O and answer again.
## Result F

## Task Next entry: CC(C)=CCC/C(C)=C/CC/C(C)=C/C(=O)C/C(C)=C/Cc1cc(O)cc(C)c1O
## Result T

## Task Same question for CC(C)=CCC/C(C)=C/CC/C(C)=C\C(=O)C/C(C)=C/Cc1cc(O)cc(C)c1O please.
## Result F

## Task Same lookup for CC(C)=CC(O)C/C(C)=C/CC/C(C)=C/C(=O)C/C(C)=C/Cc1cc(O)cc(C)c1O (stereo not given) , please.
## Result T

## Task Field entry: CC(C)=CC(O)C/C(C)=C/CC/C(C)=C\C(=O)C/C(C)=C/Cc1cc(O)cc(C)c1O (stereo not given)
## Result T

Data origin: ChEMBL document CHEMBL1146554
